The reported measurements were obtained from patent US20260317324A1.

target: BRAF G469A (Homo sapiens, UniProt P15056, G469A); construct: Horizon Discovery (HCT-116 BRAF−/− cells); host or cells: HCT-116 BRAF−/− cells, clone 34, lentiviral transduction; experiment: BRAF HiBiT degradation assay, C-terminal HiBiT-tagged BRAF G469A overexpressed in HCT-116 BRAF−/− cells (clone 34), Nano-Glo HiBiT Lytic assay; assay type: cell-based; settings: BRAF G469A (Class 2), HCT-116 BRAF−/− cells; DC50 at 50% degradation
Sequence (P15056 whole entry G469A): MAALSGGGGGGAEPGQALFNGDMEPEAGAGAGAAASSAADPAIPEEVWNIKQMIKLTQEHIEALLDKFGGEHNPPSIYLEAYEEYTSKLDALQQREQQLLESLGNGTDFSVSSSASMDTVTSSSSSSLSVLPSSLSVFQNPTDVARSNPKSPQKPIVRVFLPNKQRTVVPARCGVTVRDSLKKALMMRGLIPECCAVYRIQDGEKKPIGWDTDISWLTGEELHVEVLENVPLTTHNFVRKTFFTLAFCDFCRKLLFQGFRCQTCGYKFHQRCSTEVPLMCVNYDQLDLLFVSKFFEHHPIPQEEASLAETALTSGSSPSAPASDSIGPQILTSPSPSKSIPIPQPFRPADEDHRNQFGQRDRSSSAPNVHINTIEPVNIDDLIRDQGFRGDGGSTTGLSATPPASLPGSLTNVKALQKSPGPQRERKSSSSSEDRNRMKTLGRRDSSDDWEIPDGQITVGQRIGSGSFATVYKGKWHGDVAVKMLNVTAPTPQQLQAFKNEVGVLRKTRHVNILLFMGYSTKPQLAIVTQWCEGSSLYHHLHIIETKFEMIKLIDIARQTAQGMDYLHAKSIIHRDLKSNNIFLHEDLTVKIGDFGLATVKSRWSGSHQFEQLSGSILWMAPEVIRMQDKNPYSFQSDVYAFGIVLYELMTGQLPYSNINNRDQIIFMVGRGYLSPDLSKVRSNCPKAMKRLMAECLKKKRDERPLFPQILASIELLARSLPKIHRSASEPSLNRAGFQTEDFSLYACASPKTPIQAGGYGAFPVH

# compound, DC50
measured = [
    ("O=C1CCN(c2ccc(N3CCC(CN4CCN(c5ccc(-n6cc(-c7cc(Cl)cc(NS(=O)(=O)N8CCCC8)c7F)c(-c7ccncc7)n6)cc5)CC4)CC3)nc2)C(=O)N1", "10 to 50 nM"),
    ("C[C@@H]1CN(c2ccc(-n3cc(-c4cc(Cl)cc(NS(=O)(=O)N5CCCC5)c4F)c(-c4ccncc4)n3)nc2)CCN1CC1CCN(c2ccc([C@H]3CCC(=O)NC3=O)cc2)CC1", "10 to 50 nM"),
    ("O=C1CC[C@H](c2ccc(N3CCC(CN4CCN(c5ccc(-n6cc(-c7cc(C(F)F)cc(NS(=O)(=O)N8CCCC8)c7F)c(-c7ccncc7)n6)c(F)c5)CC4)CC3)cc2)C(=O)N1", "10 to 50 nM"),
    ("O=C1CC[C@H](c2ccc(N3CCC(CN4CCN(c5ccc(-n6cc(-c7cc(F)cc(NS(=O)(=O)N8CCCC8)c7F)c(-c7ccncc7)n6)cc5)CC4)CC3)cc2)C(=O)N1", "10 to 50 nM"),
    ("CCC(C)S(=O)(=O)Nc1cc(Cl)cc(-c2cn(-c3ccc(N4CCN(CC5CCN(c6ccc([C@H]7CCC(=O)NC7=O)cn6)CC5)CC4)cc3)nc2-c2ccncc2)c1F (mixture of isomers)", "10 to 50 nM"),
]
